# SUBJECT_OF_TEST: SUMO2 (construct not stated for this experiment) (human, UniProt P61956 1-95)
# EXPERIMENT_DESCRIPTION: fluorescence polarisation
PARAMETER: Kd

Q. Please give measured Kd of the following entry: Alexa488-labeled CysZNF451(2–56) (domain or fragment, Alexa488-maleimide on the single engineered N-terminal cysteine) CGDPGSEIIESVPPAGPEASESTTDENEDDIQFVSEGPLRPVLEYIDLVSSDDEEP
A. 120 to 150 µM
